Consider the following molecules and their measured Ki readings.
- TARGET_UNDER_TEST: Cdc7 (BEV coexpressed huCDC7/DBF4) (Homo sapiens, UniProt O00311)
- Sequence (O00311 whole entry): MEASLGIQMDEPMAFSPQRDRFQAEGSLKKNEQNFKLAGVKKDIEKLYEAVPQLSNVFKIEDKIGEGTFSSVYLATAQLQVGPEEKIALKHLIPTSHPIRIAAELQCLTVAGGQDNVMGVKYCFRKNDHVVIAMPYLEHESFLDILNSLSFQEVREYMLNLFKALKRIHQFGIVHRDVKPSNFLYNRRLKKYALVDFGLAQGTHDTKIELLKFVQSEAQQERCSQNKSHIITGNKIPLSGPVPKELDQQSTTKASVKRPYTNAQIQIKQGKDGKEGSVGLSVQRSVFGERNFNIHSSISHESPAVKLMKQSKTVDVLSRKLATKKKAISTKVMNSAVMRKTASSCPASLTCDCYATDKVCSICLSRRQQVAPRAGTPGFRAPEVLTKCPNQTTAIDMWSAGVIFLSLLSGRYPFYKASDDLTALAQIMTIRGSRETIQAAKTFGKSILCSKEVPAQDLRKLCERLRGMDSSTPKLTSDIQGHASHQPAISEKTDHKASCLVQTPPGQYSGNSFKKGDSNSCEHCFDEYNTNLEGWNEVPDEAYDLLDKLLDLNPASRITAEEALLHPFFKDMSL
- Sequence (Q9UBU7 whole entry partner): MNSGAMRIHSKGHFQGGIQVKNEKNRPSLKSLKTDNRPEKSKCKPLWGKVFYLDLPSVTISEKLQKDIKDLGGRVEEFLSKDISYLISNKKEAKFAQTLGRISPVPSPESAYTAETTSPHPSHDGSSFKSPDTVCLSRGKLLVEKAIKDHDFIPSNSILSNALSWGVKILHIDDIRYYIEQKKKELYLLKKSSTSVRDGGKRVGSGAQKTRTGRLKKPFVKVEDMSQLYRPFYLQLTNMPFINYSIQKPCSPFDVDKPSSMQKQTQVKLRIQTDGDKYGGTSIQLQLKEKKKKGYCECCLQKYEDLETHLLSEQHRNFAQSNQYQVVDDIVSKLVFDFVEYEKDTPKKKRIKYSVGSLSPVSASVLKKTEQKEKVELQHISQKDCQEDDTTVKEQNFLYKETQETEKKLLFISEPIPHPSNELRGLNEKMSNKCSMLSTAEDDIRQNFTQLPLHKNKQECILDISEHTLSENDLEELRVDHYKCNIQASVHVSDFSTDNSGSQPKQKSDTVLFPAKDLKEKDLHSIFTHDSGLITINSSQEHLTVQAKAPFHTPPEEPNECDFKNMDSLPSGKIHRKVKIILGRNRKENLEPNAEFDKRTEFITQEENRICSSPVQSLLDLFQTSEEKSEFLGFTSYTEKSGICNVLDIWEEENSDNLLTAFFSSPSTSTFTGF
- METHOD: Cdc7 enzyme inhibition assay ([33P]-ATP, biotinylated peptide substrate, FlashPlate)
- CONDITION_DETAILS: Ki generated from IC50 assuming ATP-competitive inhibition; 1 μM ATP, apparent ATP Km 0.7 μM

Some molecules with known Ki results, for comparison:
Look up Ki: "CCOC(=O)c1cccc(Cc2c[nH]c(=O)c3cc(-c4ccncc4)cn23)c1"
10 to 100 nM

Try this molecule next: "O=C(O)c1cccc(Cc2c[nH]c(=O)c3cc(-c4c[nH]c5ncccc45)cn23)c1"
< 10 nM

Try this molecule next: "CCOC(=O)c1cccc(Cc2c[nH]c(=O)c3cc(-c4c[nH]c5nccnc45)cn23)c1"
< 10 nM

Try this molecule next: "CN(c1cccc(Cc2c[nH]c(=O)c3cc(-c4c[nH]c5ncccc45)cn23)c1)C1CCC1"
10 to 100 nM

Next:
Look up Ki: "CN(C)Cc1ccc(Cc2c[nH]c(=O)c3cc(-c4c[nH]c5ncccc45)cn23)cc1"
< 10 nM

Try this molecule next: "CCC(CC)Nc1ccc(Cc2c[nH]c(=O)c3cc(-c4c[nH]c5ncccc45)cn23)cc1"
10 to 100 nM

Numbers sourced from patent US8450320B2.
